meta.source: PubChem BioAssay AID1996

Recorded solubility kinetic by entry
Conditions used: buffer; pH 7.4; 200.0 µM

Worked cases, solubility kinetic given:
1) O=C(COC(=O)c1ccccn1)NCCc1ccc(Cl)cc1; > 47.8 µg/mL
2) CCOC(=O)C1CCCCN1Cc1cn(C)nc1-c1ccccc1F (centres undefined); > 51.8 µg/mL
3) COc1cccc(C(C)NC(=O)Nc2cc(Cl)ccc2OC)c1 (centres undefined); < 0.4 µg/mL

What measured solubility kinetic goes with N#C/C(=C\c1cccs1)C(=O)c1ccccc1Cl ?
> 41.1 µg/mL

====

Conditions used: buffer; pH 7.4; 200.0 µM
Recorded solubility kinetic by entry

Worked cases, solubility kinetic given:
1. CC(NC(=O)c1ccccc1N)c1ccccc1 (centres undefined); > 36 µg/mL
2. COc1ccc(OCC(=O)c2c[nH]c3ccccc23)cc1; < 0.6 µg/mL
3. Oc1ccc(C2Nc3cccc4cccc(c34)N2)cc1; > 39.3 µg/mL

--- query ---
What measured solubility kinetic goes with CCCCNC(=O)CSc1nc(O)cc(=O)n1C1CCCC1 ?
> 48.8 µg/mL
